target_system: Jack bean Urease (Canavalia ensiformis, UniProt P07374)
Sequence (P07374 whole entry, looked up): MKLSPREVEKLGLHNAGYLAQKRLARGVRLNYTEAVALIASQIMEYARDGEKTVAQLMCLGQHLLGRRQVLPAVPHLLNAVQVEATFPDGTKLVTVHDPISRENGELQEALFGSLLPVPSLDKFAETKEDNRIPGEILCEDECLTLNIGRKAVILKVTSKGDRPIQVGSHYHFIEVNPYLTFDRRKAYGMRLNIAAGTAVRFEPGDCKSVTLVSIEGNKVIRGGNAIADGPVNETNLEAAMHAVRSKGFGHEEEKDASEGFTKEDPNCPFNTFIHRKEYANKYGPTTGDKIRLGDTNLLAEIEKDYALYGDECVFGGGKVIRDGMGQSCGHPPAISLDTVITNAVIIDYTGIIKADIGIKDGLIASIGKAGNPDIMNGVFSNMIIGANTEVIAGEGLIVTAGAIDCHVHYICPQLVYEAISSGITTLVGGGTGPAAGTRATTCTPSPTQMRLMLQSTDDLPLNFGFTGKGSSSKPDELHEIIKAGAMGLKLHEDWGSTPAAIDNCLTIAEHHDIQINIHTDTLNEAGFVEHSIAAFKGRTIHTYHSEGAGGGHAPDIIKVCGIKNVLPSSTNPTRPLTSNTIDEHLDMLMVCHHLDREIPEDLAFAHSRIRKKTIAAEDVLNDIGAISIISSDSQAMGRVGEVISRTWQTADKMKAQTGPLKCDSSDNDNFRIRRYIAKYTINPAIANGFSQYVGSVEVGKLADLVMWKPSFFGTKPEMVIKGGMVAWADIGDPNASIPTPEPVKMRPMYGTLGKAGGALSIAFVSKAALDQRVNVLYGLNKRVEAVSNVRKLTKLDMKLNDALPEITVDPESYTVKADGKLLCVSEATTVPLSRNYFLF
metric_name: pIC50
A value of pIC50 is the negative decimal logarithm of a concentration given in moles per litre.

// lookup pIC50 for CC1(C)CC[C@]2(C)CC[C@]3(C)C(=CCC4[C@@]5(C)Cc6c([nH]c7ccccc67)C(C)(C)[C@@H]5CC[C@]43C)[C@H]2C1 (stereo partly shown)
4.75

Try the molecule CC1(C)CC[C@]2(C)CC[C@]3(C)C(=CCC4[C@@]5(C)CCC(=O)C(C)(C)[C@@H]5CC[C@]43C)[C@H]2C1 (stereo partly shown)
4.84

Try the molecule COc1ccc2[nH]c3c(c2c1)C[C@]1(C)C2CC=C4[C@H]5CC(C)(C)CC[C@]5(C)CC[C@@]4(C)[C@]2(C)CC[C@H]1C3(C)C (stereo partly shown)
4.65

Try the molecule CC1(C)CCC2(C)CCC3(C)C(=CCC4C5(C)CC/C(=N\Nc6ccc([N+](=O)[O-])cc6[N+](=O)[O-])C(C)(C)C5CCC43C)C2C1 (stereo not shown)
4.61
